biological target: LXRα full length (FL) (Homo sapiens); construct: the full length (FL) proteins of LXRα (amino acids 1-447); NP005684; experiment: LXR Gal4 reporter transient transfection assay, mammalian two-hybrid, FL-M2H Gal4α; details: HEK293 cells; inverse agonist unless *
Sequence (Q13133 whole entry, the tested form may be a part): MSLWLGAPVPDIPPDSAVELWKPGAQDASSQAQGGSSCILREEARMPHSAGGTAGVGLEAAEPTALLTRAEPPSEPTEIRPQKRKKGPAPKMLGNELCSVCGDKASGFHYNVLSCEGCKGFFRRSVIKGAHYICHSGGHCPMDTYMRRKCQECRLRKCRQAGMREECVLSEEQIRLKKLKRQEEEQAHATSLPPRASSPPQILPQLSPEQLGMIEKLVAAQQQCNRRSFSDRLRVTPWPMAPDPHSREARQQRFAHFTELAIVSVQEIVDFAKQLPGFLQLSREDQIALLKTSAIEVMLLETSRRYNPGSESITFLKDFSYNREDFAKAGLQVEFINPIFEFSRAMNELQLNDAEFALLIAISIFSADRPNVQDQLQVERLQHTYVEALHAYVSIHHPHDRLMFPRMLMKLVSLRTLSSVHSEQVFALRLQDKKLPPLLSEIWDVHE
pEC50: −log10 of the molar value.
Here the recorded pEC50 is given for each entry.

[
  {
    "moleculeSmiles": "Cc1cc(C)c(CN(Cc2ccc(-c3cc(F)cc(S(=O)(=O)CC(=O)O)c3)cc2)Cc2ccc(C(F)(F)F)o2)c(C)c1",
    "targetDesc": "LXRα full length (FL) (Homo sapiens)",
    "pEC50": "6.00 to 7.00"
  },
  {
    "moleculeSmiles": "Cc1cc(F)cc(C)c1C(=O)N(Cc1ccc(-c2cccc(C(C)(C)C(=O)O)c2)cc1)Cc1ccc(C(F)(F)F)o1",
    "targetDesc": "LXRα full length (FL) (Homo sapiens)",
    "pEC50": "> 7.00"
  },
  {
    "moleculeSmiles": "Cc1ccc2ccc(C)c(CN(Cc3ccc(-c4cccc(C(C)(C)C(=O)O)c4)cc3)Cc3ccc(C(F)(F)F)o3)c2c1",
    "targetDesc": "LXRα full length (FL) (Homo sapiens)",
    "pEC50": "> 7.00"
  },
  {
    "moleculeSmiles": "COc1ccc2ccccc2c1CN(Cc1ccc(-c2cccc(S(=O)(=O)CC(=O)O)c2)cc1)Cc1ccc(C(F)(F)F)o1",
    "targetDesc": "LXRα full length (FL) (Homo sapiens)",
    "pEC50": "6.00 to 7.00"
  },
  {
    "moleculeSmiles": "Cc1ccc2ccccc2c1CN(Cc1ccc(-c2cccc(C(=O)C(=O)O)c2)cc1)Cc1ccc(C(F)(F)F)o1",
    "targetDesc": "LXRα full length (FL) (Homo sapiens)",
    "pEC50": "6.00 to 7.00"
  },
  {
    "moleculeSmiles": "Cc1nc2cccnc2c(C(=O)N(Cc2ccc(-c3cccc(C(C)(C)C(=O)O)c3)cc2)Cc2nc(C(F)(F)F)cs2)c1C",
    "targetDesc": "LXRα full length (FL) (Homo sapiens)",
    "pEC50": "> 7.00"
  },
  {
    "moleculeSmiles": "O=C(O)CS(=O)(=O)c1cccc(-c2ccc(CN(Cc3ccc(C(F)(F)F)o3)Cc3c(Cl)cccc3Cl)cc2)c1",
    "targetDesc": "LXRα full length (FL) (Homo sapiens)",
    "pEC50": "5.00 to 6.00"
  },
  {
    "moleculeSmiles": "Cc1ccc2nc(C)c(C)c(C(=O)N(Cc3ccc(-c4cccc(C(C)(C)C(=O)O)c4)cc3)Cc3ccc(C(F)(F)F)o3)c2c1",
    "targetDesc": "LXRα full length (FL) (Homo sapiens)",
    "pEC50": "> 7.00"
  },
  {
    "moleculeSmiles": "CC(C)(C(=O)O)c1cccc(-c2ccc(CN(Cc3ccc(C(F)(F)F)o3)C(=O)c3cccc4cnncc34)cc2)c1",
    "targetDesc": "LXRα full length (FL) (Homo sapiens)",
    "pEC50": "5.00 to 6.00"
  },
  {
    "moleculeSmiles": "Cc1nc2ccccc2c(C(=O)N(Cc2ccc(-c3cccc(C(C)(C)C(=O)O)c3)cc2)Cc2ccc(C(F)(F)F)o2)c1O",
    "targetDesc": "LXRα full length (FL) (Homo sapiens)",
    "pEC50": "6.00 to 7.00"
  },
  {
    "moleculeSmiles": "Cc1cc(C(=O)N(Cc2ccc(-c3cccc(C(C)(C)C(=O)O)c3)cc2)Cc2ccc(C(F)(F)F)o2)c2ccc(F)cc2n1",
    "targetDesc": "LXRα full length (FL) (Homo sapiens)",
    "pEC50": "6.00 to 7.00"
  },
  {
    "moleculeSmiles": "CC(C)(C(=O)O)c1cccc(-c2ccc(CN(Cc3ccc(C(F)(F)F)o3)C(C)(C)c3cccc4ccccc34)cc2)c1",
    "targetDesc": "LXRα full length (FL) (Homo sapiens)",
    "pEC50": "6.00 to 7.00"
  },
  {
    "moleculeSmiles": "Cc1cc(C(=O)N(Cc2ccc(-c3cccc(C(C)(C)C(=O)O)c3)cc2)Cc2ccc(C(F)(F)F)o2)c2ncccc2n1",
    "targetDesc": "LXRα full length (FL) (Homo sapiens)",
    "pEC50": "6.00 to 7.00"
  },
  {
    "moleculeSmiles": "Cc1nc2cccnc2c(C(=O)N(Cc2ccc(-c3cc(F)cc(C4(C(=O)O)CC4)c3)cc2)Cc2ccc(C(F)(F)F)o2)c1C",
    "targetDesc": "LXRα full length (FL) (Homo sapiens)",
    "pEC50": "> 7.00"
  }
]

---

Each entry below lists one item and its recorded EC50 value.
target: GST-LXRβ ligand-binding domain (Homo sapiens, UniProt P55055, INS174Q); construct: amino acids 156-461; NP009052; assay: TR-FRETβ activity assay (NCoA3 coactivator peptide recruitment); conditions: 1 μM 24(S)-25-epoxycholesterol as prestimulating agonist; inverse agonist unless *
Sequence (P55055 with tags, fused parts or gaps INS174Q limits assumed): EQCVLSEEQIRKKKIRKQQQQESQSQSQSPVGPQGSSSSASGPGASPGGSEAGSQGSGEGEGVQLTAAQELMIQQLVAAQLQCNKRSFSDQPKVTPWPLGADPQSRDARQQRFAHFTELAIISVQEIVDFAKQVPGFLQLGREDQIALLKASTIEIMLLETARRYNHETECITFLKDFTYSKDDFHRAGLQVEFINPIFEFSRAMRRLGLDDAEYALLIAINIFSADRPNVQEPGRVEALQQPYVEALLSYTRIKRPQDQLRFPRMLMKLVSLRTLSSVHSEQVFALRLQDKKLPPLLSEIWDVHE

[
  {
    "molecule": "Cc1ccc2ccccc2c1C(=O)N(Cc1ccc(-c2cccc(C(C)(C)CC(=O)O)c2)cc1)Cc1ccc(C(F)(F)F)o1",
    "EC50": "100 to 1000 nM"
  },
  {
    "molecule": "Cc1ccc2ncnn2c1C(=O)N(Cc1ccc(-c2cccc(C(C)(C)C(=O)O)c2)cc1)Cc1ccc(C(F)(F)F)o1",
    "EC50": "< 100 nM"
  },
  {
    "molecule": "Cc1ccc2ccccc2c1C(=O)N(Cc1ccc(C(F)(F)F)o1)Cc1ccc(-c2cncc(C(C)(C)C(=O)O)c2)cc1C(F)F",
    "EC50": "100 to 1000 nM"
  },
  {
    "molecule": "CCOC(=O)c1ccc(CN(Cc2ncc(-c3cccc(C(C)C(=O)O)c3)cc2Cl)C(=O)c2c(C)c(C)nc3ccccc23)o1 (stereo not drawn)",
    "EC50": "100 to 1000 nM"
  },
  {
    "molecule": "Cc1ccc2ccccc2c1C(=O)N(Cc1ccc(-c2cccc([C@H](C)C(=O)O)c2)cc1)Cc1ccc(C(F)(F)F)o1",
    "EC50": "< 100 nM"
  },
  {
    "molecule": "Cc1ccc2ccccc2c1CN(Cc1ccc(-c2cccc([C@@H](C)C(=O)O)c2)cc1)Cc1ccc(C(F)(F)F)o1",
    "EC50": "100 to 1000 nM"
  },
  {
    "molecule": "COc1nc(-c2cccc(C(C)(C)C(=O)O)c2)ccc1CN(Cc1ccc(C(F)(F)F)o1)C(=O)c1c(C)ccc2ccccc12",
    "EC50": "1000 to 10000 nM"
  },
  {
    "molecule": "Cc1nc2ccccc2c(C(=O)N(Cc2ccc(C(=O)N(C)C)o2)Cc2ncc(-c3cccc(C(C)C(=O)O)c3)cc2Cl)c1C (stereo not drawn)",
    "EC50": "> 10000 nM"
  },
  {
    "molecule": "Cc1ccc2ccccc2c1C(=O)N(Cc1ccc(C(F)(F)F)o1)Cc1ccc(-c2cccc(C(C)(C)C(=O)O)c2)nc1N",
    "EC50": "1000 to 10000 nM"
  },
  {
    "molecule": "COCc1c(C)cc(C)c(CN(Cc2ccc(-c3cccc(C(C)(C)C(=O)O)c3)cc2)Cc2ccc(C(F)(F)F)o2)c1C",
    "EC50": "100 to 1000 nM"
  },
  {
    "molecule": "Cc1cc(C)c(C(=O)N(Cc2ccc(-c3cccc(CCC(=O)O)c3)cc2)Cc2ccc(C(F)(F)F)o2)c(C)c1",
    "EC50": "1000 to 10000 nM"
  },
  {
    "molecule": "O=C(O)CS(=O)(=O)c1cccc(-c2ccc(CN(Cc3ccc(C(F)(F)F)o3)C(=O)c3c(OC(F)F)ccc4ccccc34)cc2)c1",
    "EC50": "100 to 1000 nM"
  },
  {
    "molecule": "COc1cc(-c2cccc(C(C)(C)C(=O)O)c2)ccc1CN(Cc1ccc(C(F)(F)F)o1)Cc1c(C)ccc2ccccc12",
    "EC50": "100 to 1000 nM"
  },
  {
    "molecule": "CC(C)(C(=O)O)c1cccc(-c2ccc(CN(Cc3ccc(C(F)(F)F)o3)C(=O)c3cccc4cnncc34)cc2)c1",
    "EC50": "100 to 1000 nM"
  },
  {
    "molecule": "Cc1nc2ncccn2c1C(=O)N(Cc1ccc(-c2cccc(C(C)(C)C(=O)O)c2)cc1)Cc1ccc(C(F)(F)F)o1",
    "EC50": "1000 to 10000 nM"
  },
  {
    "molecule": "Cc1ccc2cccnc2c1CN(Cc1ccc(-c2cccc(C(C)(C)C(=O)O)c2)cc1)Cc1ccc(C(F)(F)F)o1",
    "EC50": "1000 to 10000 nM"
  },
  {
    "molecule": "Cc1cc(C(=O)N(Cc2ccc(-c3cccc(C(C)(C)C(=O)O)c3)cc2)Cc2ccc(C(F)(F)F)o2)c2ccc(F)cc2n1",
    "EC50": "1000 to 10000 nM"
  },
  {
    "molecule": "Cc1ccc2ccc(C)c(CN(Cc3ccc(-c4cccc(C(C)(C)C(=O)O)c4)cc3)Cc3ccc(C(F)(F)F)o3)c2c1",
    "EC50": "100 to 1000 nM"
  },
  {
    "molecule": "Cc1cc(C)c(CN(Cc2ccc(-c3cccc(S(=O)(=O)CC(=O)NS(C)(=O)=O)c3)cc2)Cc2ccc(C(F)(F)F)o2)c(C)c1",
    "EC50": "1000 to 10000 nM"
  },
  {
    "molecule": "Cc1ccc2ccccc2c1C(=O)N(Cc1ccc(-c2cccc(S(=O)(=O)Cc3nnn[nH]3)c2)cc1)Cc1ccc(C(F)(F)F)o1",
    "EC50": "100 to 1000 nM"
  },
  {
    "molecule": "Cc1cc(C)c([N+](=O)[O-])c(C)c1C(=O)N(Cc1ccc(-c2cccc(C(C)(C)C(=O)O)c2)cc1)Cc1ccc(C(F)(F)F)o1",
    "EC50": "< 100 nM"
  }
]
